system: HMC1; assay: Inhibition of FCepsilonRI expression in human HMC1 cells at 50 to 100 uM after 72 hrs by flow cytometry; assay type: functional, cell-based
Active and inactive are the calls of the source. No cut-off for these calls is given here.
I would appreciate it if you answered using one of these outcomes: active, inactive

[[record]]
smiles_data = "Oc1cc(O)c2cc(O)c(-c3cc(O)c(O)c(O)c3)[o+]c2c1"
study_system = "HMC1"
category = "active"

[[record]]
smiles_data = "COc1c(O)cc(C(=O)O[C@@H]2Cc3c(O)cc(O)cc3O[C@@H]2c2cc(O)c(O)c(O)c2)cc1O"
study_system = "HMC1"
category = "inactive"

[[record]]
smiles_data = "COc1cc([C@H]2Oc3cc(O)cc(O)c3C[C@H]2OC(=O)c2cc(O)c(O)c(O)c2)cc(O)c1O"
study_system = "HMC1"
category = "inactive"

[[record]]
smiles_data = "COc1c(O)cc([C@H]2Oc3cc(O)cc(O)c3C[C@H]2OC(=O)c2cc(O)c(O)c(O)c2)cc1O"
study_system = "HMC1"
category = "inactive"

[[record]]
smiles_data = "COc1cc(C(=O)O[C@@H]2Cc3c(O)cc(O)cc3O[C@@H]2c2cc(O)c(O)c(O)c2)cc(O)c1O"
study_system = "HMC1"
category = "inactive"


Given `O=c1cc(-c2cc(O)c(O)c(O)c2)oc2cc(O)cc(O)c12` , state the outcome it received in this test.
active

###

tested on: HMC1; experiment: Inhibition of FCepsilonRI expression in human HMC1 cells at 100 uM after 72 hrs by flow cytometry; type: functional, cell-based
The source made the active and inactive calls. No cut-off for these calls is given here.
assay metric: inhibition

Worked examples follow.
[[record]]
smiles_data = "O=C(O[C@@H]1Cc2c(O)cc(O)cc2O[C@@H]1c1ccc(O)c(O)c1)c1cc(O)c(O)c(O)c1"
assay_metric = "inhibition"
result_value = "Active"

[[record]]
smiles_data = "COc1c(O)cc([C@H]2Oc3cc(O)cc(O)c3C[C@H]2OC(=O)c2cc(O)c(O)c(O)c2)cc1O"
assay_metric = "inhibition"
result_value = "inactive"

[[record]]
smiles_data = "COc1cc([C@H]2Oc3cc(O)cc(O)c3C[C@H]2OC(=O)c2cc(O)c(O)c(O)c2)cc(O)c1O"
assay_metric = "inhibition"
result_value = "inactive"

[[record]]
smiles_data = "O=C(O[C@@H]1Cc2c(O)cc(O)cc2O[C@H]1c1cc(O)c(O)c(O)c1)c1cc(O)c(O)c(O)c1"
assay_metric = "inhibition"
result_value = "Active"

[[record]]
smiles_data = "Oc1cc(O)c2c(c1)O[C@H](c1ccc(O)c(O)c1)[C@H](O)C2"
assay_metric = "inhibition"
result_value = "Active"

[[record]]
smiles_data = "COc1c(O)cc(C(=O)O[C@@H]2Cc3c(O)cc(O)cc3O[C@@H]2c2cc(O)c(O)c(O)c2)cc1O"
assay_metric = "inhibition"
result_value = "inactive"


Provide inhibition value for the following molecule: `COc1cc(C(=O)O[C@@H]2Cc3c(O)cc(O)cc3O[C@@H]2c2cc(O)c(O)c(O)c2)cc(O)c1O`
inactive

Origin of values: ChEMBL document CHEMBL1156298
